# In Vitro Score per entry
biological target: T1, HLA-A*11:01 (recombinant MHC class I molecule) (human); assay: REVEAL MHC-peptide binding assay, stabilisation of ternary complex with recombinant MHC
T1 construct: Recombinant MHC molecule of the ProImmune REVEAL assay
No end group written: not given here.

// solved cases for In Vitro Score follow
BINDER | RESULT
AFIIFWVRR (Synthetic 9-mer from the CD28/4-1BB junction region) [AFIIFWVRR synthetic peptide K28R (SEQ ID NO: 101)] | 1.5 % of positive control peptide
WVKRGRKKA (Synthetic 9-mer from the CD28 transmembrane / 4-1BB costimulatory junction region of a CAR) [WVKRGRKKA synthetic peptide L34A (SEQ ID NO: 90)] | 3.1 % of positive control peptide
WVQRGNKKS (not fully specified, Synthetic 9-mer from the CD28/4-1BB junction region) [WVQRGNKKS synthetic peptide K28Q/L34S (SEQ ID NO: 91)] | 5 % of positive control peptide

Consider the additional binder presented here.
Form: binder = WVQRGNKKA (not fully specified, Synthetic 9-mer from the CD28/4-1BB junction region) [WVQRGNKKA synthetic peptide K28Q/L34A (SEQ ID NO: 92)] ; In Vitro Score = 0.8 % of positive control peptide
